Would you mind telling me the reported TGI of each entry?
Tested on: OVCAR-3 ovarian
Assay: NCI tumour cell line growth inhibition, 48 h

Inquiry: Form field - read-out: TGI; system: OVCAR-3 ovarian; submitted item: C=C1C(O)C2C(=C(CC)C13CC3)C(=O)C(C)(C)C2OC (stereo unspecified)
Reply text: > 100 µM

Inquiry: Form field - read-out: TGI; system: OVCAR-3 ovarian; submitted item: C=C[C@@H](C)[C@H](NS(=O)(=O)c1ccc(C)cc1)C(=O)OCC
Reply text: 43.1 µM

Inquiry: Form field - read-out: TGI; system: OVCAR-3 ovarian; submitted item: Cc1ccc(OCC2OC(n3cnc4c(Cl)nc(N)nc43)CC2Oc2ccc(C)cc2)cc1 (stereo unspecified)
Reply text: > 63.9 µM

Inquiry: Form field - read-out: TGI; system: OVCAR-3 ovarian; submitted item: COc1cc2ccc(=O)oc2cc1O
Reply text: 330 µM

Inquiry: Form field - read-out: TGI; system: OVCAR-3 ovarian; submitted item: CC(C)CCCC(C)[C@H]1CCC2[C@@H]3CCC4Cc5nc6c(nc5C[C@]4(C)C3CC[C@@]21C)CC1CC[C@@H]2C(CC[C@@]3(C)C2CC[C@@H]3C(C)CCCC(C)C)[C@@]1(C)C6 (stereo partly specified)
Reply text: > 100 µM

Inquiry: Form field - read-out: TGI; system: OVCAR-3 ovarian; submitted item: O=C(C/C(=N/O)C(=O)NC1=C(Cl)C(=O)c2ccccc2C1=O)CC(c1ccccc1)c1c(O)c2ccccc2oc1=O (stereo unspecified)
Reply text: 15.2 µM

Inquiry: Form field - read-out: TGI; system: OVCAR-3 ovarian; submitted item: O=C1CCCCC/C1=C\c1ccc([N+](=O)[O-])cc1
Reply text: 73.2 µM

Inquiry: Form field - read-out: TGI; system: OVCAR-3 ovarian; submitted item: NC(=O)NNc1nc(-c2ccccc2)cs1
Reply text: > 100 µM

Inquiry: Form field - read-out: TGI; system: OVCAR-3 ovarian; submitted item: COC(=O)c1cc(=O)[nH]c(=O)[nH]1
Reply text: > 100 µM

Inquiry: Form field - read-out: TGI; system: OVCAR-3 ovarian; submitted item: NNC(=O)C1CCC(=O)N1S(=O)(=O)c1ccccc1 (stereo unspecified)
Reply text: > 100 µM

Inquiry: Form field - read-out: TGI; system: OVCAR-3 ovarian; submitted item: COC1CC(O[C@H]2CC[C@@]3(C)[C@H](CC[C@@H]4[C@@H]3CC[C@]3(C)[C@@H](C5=CC(=O)OC5)[C@@H](OC(C)=O)C[C@]43O)C2)OC(C)C1O (stereo partly specified)
Reply text: < 0.01 µM

Inquiry: Form field - read-out: TGI; system: OVCAR-3 ovarian; submitted item: NC(=O)c1cccc([N+](=O)[O-])c1
Reply text: > 100 µM

Inquiry: Form field - read-out: TGI; system: OVCAR-3 ovarian; submitted item: OC1(c2ccccc2)CCN(Cc2c[nH]c3ccccc23)CC1
Reply text: > 100 µM

Inquiry: Form field - read-out: TGI; system: OVCAR-3 ovarian; submitted item: O=C1CCCCCCCCCCC1CN1CCCC1 (stereo unspecified)
Reply text: > 100 µM

Inquiry: Form field - read-out: TGI; system: OVCAR-3 ovarian; submitted item: NCCCC[C@@H]1NC(=O)[C@H]2CCCN2C(=O)[C@H](Cc2ccccc2)CNC(=O)[C@H](Cc2ccccc2)NC1=O
Reply text: > 37.5 µM

Inquiry: Form field - read-out: TGI; system: OVCAR-3 ovarian; submitted item: Cc1cc2c(cc1Cl)SC1=NN(C)C(C)N1S2(=O)=O (stereo unspecified)
Reply text: > 100 µM

Inquiry: Form field - read-out: TGI; system: OVCAR-3 ovarian; submitted item: Cc1[nH]c2ccccc2c1CCCO
Reply text: > 100 µM

Inquiry: Form field - read-out: TGI; system: OVCAR-3 ovarian; submitted item: CN(C)c1ccc(/C(F)=C(F)/C(F)=C(F)/C(F)=C(\F)c2ccc(Br)cc2)cc1
Reply text: > 60.5 µM

Inquiry: Form field - read-out: TGI; system: OVCAR-3 ovarian; submitted item: ClCCCc1ccccc1C1=NCCc2ccccc21
Reply text: > 100 µM

Inquiry: Form field - read-out: TGI; system: OVCAR-3 ovarian; submitted item: COc1ccc2c(c1)C(=O)c1ccc(OC)cc1C2=S
Reply text: > 100 µM

Inquiry: Form field - read-out: TGI; system: OVCAR-3 ovarian; submitted item: CSCCC(N)C(=O)NCCNc1ccc(NCCNC(=O)C(N)CCSC)c2c1C(=O)c1ccccc1C2=O (stereo unspecified)
Reply text: 9.44 µM

---

System: A498 renal
Assay: NCI tumour cell line growth inhibition, 48 h; in the data active means GI50 below about 0.43 µM; inactive means the rest
Respond with a class label; see yes (1) = active, no (0) = inactive

Inquiry: Hi, do you know how Cc1cccc(/C=N/NC(=S)N2CCCC2)n1 came out in this test?
Reply text: no (0)

Inquiry: Hi, do you know how COc1ccc2c(c1)NC1=C(C(=O)OC1)C2c1cc(OC)c2c(c1)OCO2 (stereo not given) came out in this test?
Reply text: yes (1)

Inquiry: Hi, do you know how COc1cc(C(=O)c2c(-c3ccccc3)oc3c(OC)cccc23)cc(OC)c1OC came out in this test?
Reply text: yes (1)

Inquiry: Hi, do you know how COc1ccc(CCN2CC=Cn3c2nc2ccccc2c3=O)cc1 came out in this test?
Reply text: yes (1)

Inquiry: Hi, do you know how CCCCCCC[CH2][Sn]([CH2]CCCCCCC)([O]c1cccc2cccnc12)[O]c1cccc2cccnc12 came out in this test?
Reply text: no (0)

---

Would you mind telling me the reported TGI of each entry?
System: UACC-257 melanoma
Test: NCI tumour cell line growth inhibition, 48 h

Inquiry: I am curious: what TGI value has been reported for C=Cc1cncc(C#N)c1CCc1c(C#N)cncc1C=C ?
Reply text: > 100 µM

Inquiry: I am curious: what TGI value has been reported for CC(C)(C)C(=O)OCC1C(=O)OCC1C(=O)N1Cc2cc3ccccc3nc2C1 (centres undefined) ?
Reply text: 13.4 µM

Inquiry: I am curious: what TGI value has been reported for C[N+](C)(C)c1ccc(C(N)C(=O)O)cc1 (centres undefined) ?
Reply text: > 100 µM

Inquiry: I am curious: what TGI value has been reported for Cc1cccc(Nc2nn3c(=O)c4c5c(sc4nc3s2)CCCC5)c1 ?
Reply text: > 100 µM

Inquiry: I am curious: what TGI value has been reported for C=C1CC2OC(=O)C(=C)C2C(O)C2C(=C)CCC12 (centres undefined) ?
Reply text: 18.8 µM

Inquiry: I am curious: what TGI value has been reported for NC(=O)NNc1nc(-c2ccccc2)cs1 ?
Reply text: > 100 µM

Inquiry: I am curious: what TGI value has been reported for C#CC#CC#CC#CC#CC#CC#CC#CCC1OCC(COC(=O)O[C@@H](C(=O)O[C@H]2C[C@@]3(O)[C@@H](OC(=O)c4ccccc4)[C@@H]4[C@]5(OC(C)=O)CO[C@@H]5C[C@H](O)[C@@]4(C)C(=O)[C@H](OC(C)=O)C(=C2C)C3(C)C)[C@@H](NC(=O)c2ccccc2)c2ccccc2)O1 (some centres undefined) ?
Reply text: > 33.3 µM

Inquiry: I am curious: what TGI value has been reported for COc1cc2nc(N3CCCC3)nc(NCc3ccccc3)c2cc1OC ?
Reply text: 4.04 µM

Inquiry: I am curious: what TGI value has been reported for OC1(C23CC4CC(CC(C4)C2)C3)CSCC1(O)C12CC3CC(CC(C3)C1)C2 (centres undefined) ?
Reply text: > 100 µM

---

Tested on: TK-10 renal
Experiment: NCI tumour cell line growth inhibition, 48 h
Would you mind telling me the reported TGI of each entry?

Inquiry: I am curious: what TGI value has been reported for Cn1ncnc1[C@H]1c2n[nH]c(=O)c3cc(F)cc(c23)N[C@@H]1c1ccc(F)cc1 ?
Reply text: > 100 µM

Inquiry: I am curious: what TGI value has been reported for O=C(O)CC[C@H](NC(=O)c1ccc(-n2nc3ccc(O)cc3nc2=O)cc1)C(=O)O ?
Reply text: > 100 µM

Inquiry: I am curious: what TGI value has been reported for O=C(c1ccc(Cl)cc1Cl)C1[C@H]2C(=O)N(c3ccc(Cc4ccc(N5C(=O)[C@@H]6ON(c7ccccc7)C(C(=O)c7ccc(Cl)cc7Cl)[C@@H]6C5=O)cc4)cc3)C(=O)[C@H]2ON1c1ccccc1 (stereo partly drawn) ?
Reply text: > 50 µM

Inquiry: I am curious: what TGI value has been reported for COc1cc(OC)c2nc(C)c3c(c2c1)SCC3 ?
Reply text: 38.5 µM

Inquiry: I am curious: what TGI value has been reported for CC(C)CCCC(C)[C@H]1CCC2[C@@H]3CCC4Cc5nc6c(nc5C[C@]4(C)C3CC[C@@]21C)CC1CC[C@@H]2C(CC[C@@]3(C)C2CC[C@@H]3C(C)CCCC(C)C)[C@@]1(C)C6 (stereo partly drawn) ?
Reply text: > 100 µM

Inquiry: I am curious: what TGI value has been reported for CN(C)CCN1C(=O)c2c(c3c4ccccc4n4c3c3c2c2ccccc2n3C2CC(O)C(O)C4(C)O2)C1=O (stereo not drawn) ?
Reply text: 13.5 µM

Inquiry: I am curious: what TGI value has been reported for O=C1Nc2ccc(Br)cc2C1=Nc1cccnc1 ?
Reply text: > 100 µM

Inquiry: I am curious: what TGI value has been reported for Cc1[nH]c2ccccc2c1CCCO ?
Reply text: > 100 µM
